Data provenance is ChEMBL document CHEMBL3988442.

Overview of recorded Percent Effect for various compounds
Test system: Trypanosoma cruzi
Assay Notes: Trypanosoma cruzi phosphomannomutase and mannose-1-phosphate guanylyltransferase assay
Assay type: functional
Design: scale not given: direction of the effect not stated beside the values
Measurement Context: 10 µM
Assay Endpoint: Percent Effect (%)

>>> df
                                    compound  assay_endpoint  assay_value
 0  COc1cccc(N2CCN(CC(O)c3ccc(C)cc3)CC2)c1 (configuration not stated)  Percent Effect        0.292
 1  Cc1cnn(C2CCCN(C(=O)CCCNc3ncccn3)C2)c1 (configuration not stated)  Percent Effect        -4.62
 2  Cc1nnc(CN2CCC(N(C)Cc3nnc(C4CC4)n3C)C2)o1 (configuration not stated)  Percent Effect        -6.32
 3  CS(=O)(=O)N1C[C@@H]2CC[C@H](C1)N(Cc1cscn1)C2=O  Percent Effect         6.35
 4     CCn1nc(CC(C)C)cc1C(=O)N1CC[C@@H](O)C1  Percent Effect         2.82
 5  Cc1ccc(-c2nc(CNC3CCc4ncnn4C3)co2)c(C)c1 (configuration not stated)  Percent Effect         6.18
 6  Cc1ncc2c(n1)CCCC2NC(=O)c1ccncc1 (configuration not stated)  Percent Effect        -1.87
 7  CC(C)NC(=O)c1ccc2c(c1)nc1n2CCN(c2ccccc2)C1  Percent Effect        -1.97
 8      CCc1ccc(CN(CCCn2ccnc2)Cc2ccc(C)s2)o1  Percent Effect        -0.79
 9  c1ccc(-c2nc(CN3CCCC(Cn4cncn4)C3)no2)cc1 (configuration not stated)  Percent Effect        -3.59
10  Cn1cc2c(n1)C(CNC(=O)Cc1ccsc1)OCC2 (configuration not stated)  Percent Effect         4.83
11        COCc1nc(N(C)C)ncc1C(=O)Nc1ccn(C)n1  Percent Effect         1.38
12     CCc1nc(CN2CCCN(C(=O)CCc3ccco3)CC2)cs1  Percent Effect         5.64
13  COc1ccc(C(=O)N(C)Cc2cccc(C#N)c2)c(OC)c1OC  Percent Effect         1.95
14   O=C(NCC1CC1)Nc1cccc(N2CCN(CC3CC3)CC2)c1  Percent Effect         5.38
15  Cn1cc(CN2CCC(F)(F)C3(CCN(c4cnccn4)C3)C2)cn1 (configuration not stated)  Percent Effect            0
16  Cc1ccoc1C(=O)NCC(Cc1ccc(F)cc1)C(N)=O (configuration not stated)  Percent Effect         3.62
17  COC(=O)C(c1cc(F)ccc1F)N(C)C(=O)c1cccnc1O (configuration not stated)  Percent Effect        -1.33
18  N#Cc1cccnc1N1CCC2(CCCN(C3CCOCC3)C2=O)C1 (configuration not stated)  Percent Effect         2.58
19  Cc1noc([C@@H]2C[C@H]3OCC[C@H]3N(S(C)(=O)=O)C2)n1  Percent Effect         4.37
20      CN(C)C(=O)CNC(=O)CCn1ncc2c(Cl)cccc21  Percent Effect         3.73
21  CC(C)S(=O)(=O)N1CCC(c2cc3n(n2)[C@@H](C(F)(F)F)C[C@@H](C)N3)C1 (some centres not stated)  Percent Effect         4.13
22        Cc1ccc2c(c1)C1(CC2)CCN(c2nncs2)CC1  Percent Effect         1.59
23  Cn1cc(CN2CCCC3(CCN(c4nncs4)C3)C2)cn1 (configuration not stated)  Percent Effect        -2.83
24             CCn1cc(N2Cc3nc(N)ncc3C2=O)cn1  Percent Effect         7.47
25  CCn1cc2c(n1)CN(CC1CC1)CC2COCC1CC1 (configuration not stated)  Percent Effect        -1.77
26  CCc1n[nH]c(C2CN(C(=O)c3csnn3)CCO2)n1 (configuration not stated)  Percent Effect         7.15
27     O=C(CCNC(=O)c1ccccc1N1CCOCC1)NC1CCCC1  Percent Effect         4.76
28  COCc1ccccc1C(=O)N1CCCC(n2nc(C)cc2C)C1 (configuration not stated)  Percent Effect         4.06
29     Cc1csc(NC(=O)CN2CCC(c3ccnn3CCO)CC2)n1  Percent Effect         4.06
30           O=C(NCCOc1ncc(Cl)cc1Cl)c1ccncc1  Percent Effect        -5.27
31  CC(C)NC(=O)[C@@H]1CCO[C@@H]2CCN(c3ncccn3)C[C@H]21  Percent Effect        0.579
32  CN(c1cccnn1)C1CCN(C(=O)c2ccc3c(c2)COC3)CC1  Percent Effect        0.187
33  Cn1cc(C(=O)CC2CCCN2C(=O)c2n[nH]c3ccccc23)cn1 (configuration not stated)  Percent Effect         2.56
34  COCc1ccccc1NC(=O)[C@@H]1CCCN1C(=O)c1ccco1  Percent Effect         2.82
35  CC(=O)N1CC[C@H]2OCC[C@@H](C(=O)N3CCCCO3)[C@@H]2C1  Percent Effect        -1.97
36  Cc1cc(CNC(=O)C2CCCCN2C(=O)OC(C)(C)C)no1 (configuration not stated)  Percent Effect        -2.83
37  CNC(=O)[C@@]12CCO[C@@H]1CCN(S(=O)(=O)c1cccnc1)C2  Percent Effect         4.99
38        CC(C)(C)C(=O)NCCn1ccc(-c2ccncc2)n1  Percent Effect         3.33
39  CN1CCCc2cc(NC(=O)N3CCOC(C(N)=O)C3)ccc21 (configuration not stated)  Percent Effect         5.75
40     CCOc1ccc(S(=O)(=O)NCc2cccnc2N(C)C)cc1  Percent Effect         7.08
41     CC(C)OCCN1CCN(C(=O)c2cccc(CC#N)c2)CC1  Percent Effect        -8.99
42     COc1ccc(NCc2nc(=O)n(CCC(C)C)[nH]2)cc1  Percent Effect      -0.0974
43   Cn1ccc(-c2cc(C(=O)N3CCOCC3)c3ccccn23)n1  Percent Effect         -8.5
44  O=C([C@@H]1C[C@H]2[C@H](CCN2Cc2nccs2)O1)N1CCOCC1  Percent Effect        -2.15
45   Cn1c(C2CC2)nc2c1CCN(CCOc1ccc(C#N)cc1)C2  Percent Effect         2.43
46  CCCC(NC(=O)c1cc(C)n(C2CC2)c1C)c1nnn[nH]1 (configuration not stated)  Percent Effect         6.13
